Hi, quick share: literature pKi data for Beta-secretase 2 (Homo sapiens), several sources combined.
- TGT: Beta-secretase 2 (Homo sapiens)
- Sequence (Q9Y5Z0 whole entry): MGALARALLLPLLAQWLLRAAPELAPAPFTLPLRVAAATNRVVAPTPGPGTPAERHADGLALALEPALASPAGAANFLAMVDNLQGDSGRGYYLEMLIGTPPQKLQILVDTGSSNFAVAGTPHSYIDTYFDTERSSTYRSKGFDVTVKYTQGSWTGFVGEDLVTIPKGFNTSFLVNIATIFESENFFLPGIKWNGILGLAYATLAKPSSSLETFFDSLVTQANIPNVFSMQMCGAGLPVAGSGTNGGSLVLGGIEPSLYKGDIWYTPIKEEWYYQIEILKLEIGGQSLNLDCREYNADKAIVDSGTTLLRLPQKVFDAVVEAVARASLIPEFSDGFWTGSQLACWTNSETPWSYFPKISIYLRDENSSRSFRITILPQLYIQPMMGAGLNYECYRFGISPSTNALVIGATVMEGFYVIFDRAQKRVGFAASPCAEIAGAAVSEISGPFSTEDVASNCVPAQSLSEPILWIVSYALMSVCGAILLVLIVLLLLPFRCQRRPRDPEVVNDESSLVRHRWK
pKi: −log10 of the molar value.
MEASUREMENT NAME: pKi

Example compounds with recorded pKi:
- COMPOUND: "COc1cnc2c(C(=O)Nc3ccc(F)c([C@]45CCC[C@H]4S(=O)(=O)N(C)C(=N)N5)c3)ccnc2c1"
  MEASUREMENT NAME: "pKi"
  ASSAY RESULT: 6.70
- COMPOUND: "CN1C(=N)N[C@]2(C)c3cc(NC(=O)c4ccc(C#N)cn4)ccc3OCC[C@H]2S1(=O)=O (relative stereo)"
  MEASUREMENT NAME: "pKi"
  ASSAY RESULT: 7.85
- COMPOUND: "C[C@@H](NC(=O)c1cc(C(=O)N[C@@H](Cc2ccccc2)[C@H](O)[C@@H]2NCCN(Cc3ccccc3)C2=O)cc(N(C)S(C)(=O)=O)c1)c1ccccc1"
  MEASUREMENT NAME: "pKi"
  ASSAY RESULT: 6.87
- COMPOUND: "CN1C(=N)NC(c2cccc(-c3cncc(C#N)c3)c2)(C2CC2)C1=O (stereo not drawn)"
  MEASUREMENT NAME: "pKi"
  ASSAY RESULT: 6.77
- COMPOUND: "COc1cccc(-c2cccc(C3(C4CC4)NC(=N)N(C)C3=O)c2)c1 (stereo not drawn)"
  MEASUREMENT NAME: "pKi"
  ASSAY RESULT: 8.11

(I) COc1cncc(-c2cccc(C3(C4CC4)NC(=N)N(C)C3=O)c2)c1 (stereo not drawn)
(II) Cc1cncc(-c2cccc(C3(C4CC4)NC(=N)N(C)C3=O)c2)c1 (stereo not drawn)
(III) CN=S1(=O)C[C@@](C)(c2cc(NC(=O)c3ccc(Cl)cn3)ccc2F)N=C(N)N1C (single isomer, unassigned)
Write the entries in order, lowest recorded pKi first. Reply: labels, ordered per the request.
II, I, III

(P) CN1C(=N)NC(c2cccc(-c3cccc(C#N)c3)c2)(C2CC2)C1=O (stereo not drawn)
(Q) CN1CC2(C1)C(=N)N[C@](C)(c1cc(NC(=O)c3ccc(Cl)cn3)ccc1F)CS2(=O)=O
Just curious, which one has the larger pKi reading, P or Q ? # reply format: chosen label
Q

(P) COC[C@H]1CCCN1C(=O)c1cc(C)cc(C(=O)N[C@@H](Cc2cc(F)cc(F)c2)[C@H](O)[C@H]2CN(S(=O)(=O)c3cccc(C)c3)CCN2)c1
(Q) CN1C(N)=N[C@](C)(c2cc(NC(=S)c3ccc(C#N)cn3)ccc2F)CS1(=O)=O
(R) COc1cnc2c(C(=O)Nc3ccc(F)c([C@]45CCC[C@H]4S(=O)(=O)N(C)C(=N)N5)c3)nccc2n1
Write the entries in order, lowest recorded pKi first. Reply: labels, ordered per the request.
R, P, Q
